Where do the numbers come from? From BindingDB's records for doi:10.1038/sj.npp.1300819.

Target: 5-hydroxytryptamine receptor 6 (Homo sapiens, UniProt P50406)
Sequence (P50406 whole entry): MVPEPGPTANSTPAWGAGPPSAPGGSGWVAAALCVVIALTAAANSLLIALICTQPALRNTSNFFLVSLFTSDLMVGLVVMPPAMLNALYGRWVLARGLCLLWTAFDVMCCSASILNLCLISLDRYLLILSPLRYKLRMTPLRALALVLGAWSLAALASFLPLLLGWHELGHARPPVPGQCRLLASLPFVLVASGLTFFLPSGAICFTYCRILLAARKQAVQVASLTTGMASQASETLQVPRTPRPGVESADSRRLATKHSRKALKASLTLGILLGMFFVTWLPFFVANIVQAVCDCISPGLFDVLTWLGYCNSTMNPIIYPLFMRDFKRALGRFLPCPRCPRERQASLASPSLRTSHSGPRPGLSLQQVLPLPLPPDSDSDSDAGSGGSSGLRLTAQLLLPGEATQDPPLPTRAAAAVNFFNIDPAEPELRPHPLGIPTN

{"COMPOUND": "OC(c1ccccc1)C1CCN(CCc2ccccc2)CC1 (stereo unspecified) [MDL-11939]", "Ki / nM": 2750}

---

Target: D(4) dopamine receptor (Homo sapiens)
Sequence (P21917 whole entry): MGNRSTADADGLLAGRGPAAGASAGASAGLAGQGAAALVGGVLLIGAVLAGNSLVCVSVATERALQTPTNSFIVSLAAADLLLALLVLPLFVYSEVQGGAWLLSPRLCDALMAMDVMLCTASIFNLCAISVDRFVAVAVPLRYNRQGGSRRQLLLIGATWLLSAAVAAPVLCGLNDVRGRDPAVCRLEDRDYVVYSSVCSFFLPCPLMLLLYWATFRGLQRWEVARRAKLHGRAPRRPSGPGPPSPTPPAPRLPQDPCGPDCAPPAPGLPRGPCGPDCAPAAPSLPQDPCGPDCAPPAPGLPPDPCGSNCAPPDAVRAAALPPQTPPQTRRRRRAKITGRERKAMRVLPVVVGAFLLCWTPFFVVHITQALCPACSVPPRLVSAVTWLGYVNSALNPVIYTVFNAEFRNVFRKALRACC

{"MOLECULE": "OC(c1ccccc1)C1CCN(CCc2ccccc2)CC1 (stereo unspecified)", "Ki (µM)": 3.93}

---

Molecular target: D(3) dopamine receptor (Rattus norvegicus)
Sequence (P19020 whole entry): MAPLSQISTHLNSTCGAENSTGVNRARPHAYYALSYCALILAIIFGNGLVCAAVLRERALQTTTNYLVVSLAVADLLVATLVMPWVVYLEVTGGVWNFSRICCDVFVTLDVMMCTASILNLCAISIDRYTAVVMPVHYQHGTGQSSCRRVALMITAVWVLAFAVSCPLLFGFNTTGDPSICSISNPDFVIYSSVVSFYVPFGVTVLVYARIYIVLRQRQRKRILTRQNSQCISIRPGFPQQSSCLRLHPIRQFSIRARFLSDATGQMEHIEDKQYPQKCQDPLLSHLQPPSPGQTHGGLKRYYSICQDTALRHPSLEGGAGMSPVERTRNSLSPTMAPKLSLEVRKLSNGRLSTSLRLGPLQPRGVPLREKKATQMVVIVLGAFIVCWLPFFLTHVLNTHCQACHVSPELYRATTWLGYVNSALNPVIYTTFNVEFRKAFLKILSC
pKi: −log10 of the molar value.
VALUE_TYPE: pKi

{"SMILES_REPRESENTATION": "CN(C)CCON=C(C=Cc1ccc(O)cc1)c1ccccc1F", "RESULT": "< 5.00"}

---

Molecular target: Histamine H1 receptor (Homo sapiens, UniProt P35367)
Sequence (P35367 whole entry): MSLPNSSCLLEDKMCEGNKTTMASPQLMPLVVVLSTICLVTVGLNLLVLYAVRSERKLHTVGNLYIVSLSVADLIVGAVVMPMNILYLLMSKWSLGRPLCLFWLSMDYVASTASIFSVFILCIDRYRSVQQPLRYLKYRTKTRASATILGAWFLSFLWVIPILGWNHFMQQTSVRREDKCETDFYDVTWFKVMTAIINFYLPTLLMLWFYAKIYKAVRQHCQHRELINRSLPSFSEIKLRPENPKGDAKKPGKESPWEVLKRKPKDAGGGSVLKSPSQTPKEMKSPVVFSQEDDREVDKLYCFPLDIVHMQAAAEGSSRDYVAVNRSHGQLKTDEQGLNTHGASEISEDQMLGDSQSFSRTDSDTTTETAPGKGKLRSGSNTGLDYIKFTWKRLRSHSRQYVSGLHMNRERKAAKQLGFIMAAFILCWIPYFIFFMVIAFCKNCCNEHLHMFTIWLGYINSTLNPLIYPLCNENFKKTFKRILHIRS
pKi: −log10 of the molar value.

{"COMPOUND": "OC(c1ccccc1)C1CCN(CCc2ccccc2)CC1 (stereo unspecified)", "pKi": 5.79}

---

Target: Alpha-1A adrenergic receptor (Homo sapiens)
Sequence (P35348 whole entry): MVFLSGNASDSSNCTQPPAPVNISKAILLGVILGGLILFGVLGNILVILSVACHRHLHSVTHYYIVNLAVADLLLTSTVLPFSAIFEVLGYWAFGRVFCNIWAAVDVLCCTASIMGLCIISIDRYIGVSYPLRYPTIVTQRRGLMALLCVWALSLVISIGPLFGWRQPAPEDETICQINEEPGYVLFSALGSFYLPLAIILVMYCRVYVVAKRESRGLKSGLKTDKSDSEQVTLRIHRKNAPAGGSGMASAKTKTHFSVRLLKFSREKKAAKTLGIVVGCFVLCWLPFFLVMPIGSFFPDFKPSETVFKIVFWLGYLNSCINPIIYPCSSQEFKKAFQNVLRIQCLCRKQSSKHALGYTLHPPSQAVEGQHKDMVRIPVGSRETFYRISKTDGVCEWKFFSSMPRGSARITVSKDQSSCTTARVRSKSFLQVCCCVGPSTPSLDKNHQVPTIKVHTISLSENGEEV
pKi: −log10 of the molar value.
VALUE_TYPE: pKi

{"MOLECULE": "OC(c1ccccc1)C1CCN(CCc2ccccc2)CC1 (stereo unspecified)", "RESULT_NUMBER": 5.73}

---

Sequence of the target: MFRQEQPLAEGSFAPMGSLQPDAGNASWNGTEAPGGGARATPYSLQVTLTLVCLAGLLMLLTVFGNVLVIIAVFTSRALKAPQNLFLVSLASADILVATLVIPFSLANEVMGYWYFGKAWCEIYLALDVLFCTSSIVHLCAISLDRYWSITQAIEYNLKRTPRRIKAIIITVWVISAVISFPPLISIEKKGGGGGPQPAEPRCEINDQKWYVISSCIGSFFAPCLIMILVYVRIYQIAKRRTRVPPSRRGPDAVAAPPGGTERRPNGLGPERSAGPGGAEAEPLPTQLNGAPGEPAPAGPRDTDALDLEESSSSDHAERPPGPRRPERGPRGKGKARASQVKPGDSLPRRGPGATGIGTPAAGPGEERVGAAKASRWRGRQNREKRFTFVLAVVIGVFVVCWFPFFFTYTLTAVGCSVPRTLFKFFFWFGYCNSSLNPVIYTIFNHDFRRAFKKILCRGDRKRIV
pKi: −log10 of the molar value.
VALUE_TYPE: pKi

{"COMPOUND": "OC(c1ccccc1)C1CCN(CCc2ccccc2)CC1 (stereo unspecified)", "RESULT_NUMBER": 5.80}

---

Target chain: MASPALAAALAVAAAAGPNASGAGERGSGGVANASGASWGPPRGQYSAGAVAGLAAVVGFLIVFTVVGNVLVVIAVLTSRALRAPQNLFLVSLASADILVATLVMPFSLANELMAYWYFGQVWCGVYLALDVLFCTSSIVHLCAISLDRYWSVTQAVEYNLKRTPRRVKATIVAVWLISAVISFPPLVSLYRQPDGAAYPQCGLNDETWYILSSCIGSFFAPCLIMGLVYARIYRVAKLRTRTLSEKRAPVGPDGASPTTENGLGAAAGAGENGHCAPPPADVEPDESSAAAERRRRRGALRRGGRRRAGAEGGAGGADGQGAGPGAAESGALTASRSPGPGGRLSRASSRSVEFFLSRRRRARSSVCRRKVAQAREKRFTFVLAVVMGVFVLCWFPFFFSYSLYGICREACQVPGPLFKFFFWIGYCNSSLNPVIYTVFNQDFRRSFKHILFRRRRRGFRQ

{"COMPOUND": "OC(c1ccccc1)C1CCN(CCc2ccccc2)CC1 (stereo unspecified)", "Ki, nM": 1190}

---

Reported Ki, Sodium-dependent noradrenaline transporter (Homo sapiens).
VALUE_TYPE: Ki (nM)

{"MOLECULE": "OC(c1ccccc1)C1CCN(CCc2ccccc2)CC1 (configuration not stated)", "VALUE_TYPE": "Ki", "UNIT_STRING": "nM", "PREFIX_OPERATOR": ">", "RESULT_NUMBER": 10000}
{"MOLECULE": "CN(C)CCON=C(C=Cc1ccc(O)cc1)c1ccccc1F", "VALUE_TYPE": "Ki", "UNIT_STRING": "nM", "PREFIX_OPERATOR": "=", "RESULT_NUMBER": 739}
